These measurements were taken from PubChem BioAssay (NCATS).

Test system: ATS95
Experiment: qHTS profiling for inhibitors of Plasmodium falciparum proliferation (AID 504749); also: nearly all actives have a fitted effect of over 60% in size
Conditions: P. falciparum in erythrocytes, SYBR Green DNA, 72 h; series mostly up to 28.7 µM
Inconclusive results are not listed. Active and inactive are the calls of the source. Calls follow the shape of the dose curve; as a rule, active = well fitted inhibition curve with a large enough effect; inconclusive = small, poorly fitted or top-dose-only effect; inactive = flat fitted curve, though single readings scatter.
Result category, one only: 1 (active), -1 (inactive)

Worked set:
- molecule: "CCn1ccnc1CC1COc2ccccc2O1 (centres undefined)"
  class-assignment: -1
- molecule: "CCCN(CCC)CCc1cccc2c1CC(=O)N2"
  class-assignment: -1
- molecule: "CCN(CC)CCOCCOC(=O)C1(c2ccccc2)CCCC1"
  class-assignment: 1

Per the records of this test, what outcome belongs to C[N+](C)(C)CCOC(N)=O ?
-1

Queued: Cc1nnc(SCC2=C(C(=O)O)N3C(=O)[C@@H](NC(=O)Cn4cnnn4)[C@H]3SC2)s1
-1
